Test system: SW837
Test: combination cScore with adagrasib (Bliss gap around IC50) (%PoC); higher = stronger additive effect
Counter-ions that a name gives are not always drawn.
MEASURED METRIC: combination cScore with adagrasib

1) COc1ncc(-c2ccc3nccc(-c4ccnnc4)c3c2)cc1NS(=O)(=O)c1ccc(F)cc1F + C=C(F)C(=O)N1CCN(c2nc(OC[C@@H]3CCCN3C)nc3c2CCN(c2cccc4cccc(Cl)c24)C3)C[C@@H]1CC#N [adagrasib] ... 4.03
2) O=P1(N(CCCl)CCCl)NCCCO1 (stereo not drawn) [Cyclophosphamide] + C=C(F)C(=O)N1CCN(c2nc(OC[C@@H]3CCCN3C)nc3c2CCN(c2cccc4cccc(Cl)c24)C3)C[C@@H]1CC#N [adagrasib] ... -0.5
3) C=CC(=O)N1CCC[C@@H](n2nc(-c3ccc(Oc4ccccc4)cc3)c3c(N)ncnc32)C1 [Ibrutinib] + C=C(F)C(=O)N1CCN(c2nc(OC[C@@H]3CCCN3C)nc3c2CCN(c2cccc4cccc(Cl)c24)C3)C[C@@H]1CC#N [adagrasib] ... 2.16
4) C[C@@H]1CCN(C(=O)CC#N)C[C@@H]1N(C)c1ncnc2[nH]ccc12 [Tofacitinib citrate] + C=C(F)C(=O)N1CCN(c2nc(OC[C@@H]3CCCN3C)nc3c2CCN(c2cccc4cccc(Cl)c24)C3)C[C@@H]1CC#N [adagrasib] ... 5.3
5) COc1cc(Nc2c(C#N)cnc3cc(OCCCN4CCN(C)CC4)c(OC)cc23)c(Cl)cc1Cl [Bosutinib] + C=C(F)C(=O)N1CCN(c2nc(OC[C@@H]3CCCN3C)nc3c2CCN(c2cccc4cccc(Cl)c24)C3)C[C@@H]1CC#N [adagrasib] ... 6.35
6) Nc1ccn([C@@H]2O[C@H](CO)[C@@H](O)C2(F)F)c(=O)n1 [Gemcitabine] + C=C(F)C(=O)N1CCN(c2nc(OC[C@@H]3CCCN3C)nc3c2CCN(c2cccc4cccc(Cl)c24)C3)C[C@@H]1CC#N [adagrasib] ... -2.8
7) CCC1=C[C@@H]2CN(C1)Cc1c([nH]c3ccccc13)[C@@](C(=O)OC)(c1cc3c(cc1OC)N(C)[C@H]1[C@@](O)(C(=O)OC)[C@H](OC(C)=O)[C@]4(CC)C=CCN5CC[C@]31[C@@H]54)C2 [Vinorelbine] + C=C(F)C(=O)N1CCN(c2nc(OC[C@@H]3CCCN3C)nc3c2CCN(c2cccc4cccc(Cl)c24)C3)C[C@@H]1CC#N [adagrasib] ... 3.93
8) COc1ccc2nc3ccc(OC)cc3c(SCCCN)c2c1 + C=C(F)C(=O)N1CCN(c2nc(OC[C@@H]3CCCN3C)nc3c2CCN(c2cccc4cccc(Cl)c24)C3)C[C@@H]1CC#N [adagrasib] ... -2.24

###

System: NCI-H2122
Test: combination cScore with adagrasib (Bliss gap around IC50) (%PoC); higher = stronger additive effect
# if value of combination cScore with adagrasib reaches 10, tag True; if it stays below, tag False

1) COc1cc(N2CCC(N3CCN(C)CC3)CC2)ccc1Nc1ncc(Cl)c(Nc2ccccc2S(=O)(=O)C(C)C)n1 [NVP-TAE684] + C=C(F)C(=O)N1CCN(c2nc(OC[C@@H]3CCCN3C)nc3c2CCN(c2cccc4cccc(Cl)c24)C3)C[C@@H]1CC#N [adagrasib] ... True
2) CC(C)(C)c1nc(-c2cccc(NS(=O)(=O)c3c(F)cccc3F)c2F)c(-c2ccnc(N)n2)s1 [Dabrafenib] + C=C(F)C(=O)N1CCN(c2nc(OC[C@@H]3CCCN3C)nc3c2CCN(c2cccc4cccc(Cl)c24)C3)C[C@@H]1CC#N [adagrasib] ... False
3) Cc1ccc(Nc2nccc(N(C)c3ccc4c(C)n(C)nc4c3)n2)cc1S(N)(=O)=O [Pazopanib] + C=C(F)C(=O)N1CCN(c2nc(OC[C@@H]3CCCN3C)nc3c2CCN(c2cccc4cccc(Cl)c24)C3)C[C@@H]1CC#N [adagrasib] ... False
4) COc1cc2/c(=N/c3ccc(Br)cc3F)nc[nH]c2cc1OCC1CCN(C)CC1 [Vandetanib] + C=C(F)C(=O)N1CCN(c2nc(OC[C@@H]3CCCN3C)nc3c2CCN(c2cccc4cccc(Cl)c24)C3)C[C@@H]1CC#N [adagrasib] ... True
5) CC1(N)CCN(c2cnc(-c3cccc(Cl)c3Cl)c(N)n2)CC1 [SHP099] + C=C(F)C(=O)N1CCN(c2nc(OC[C@@H]3CCCN3C)nc3c2CCN(c2cccc4cccc(Cl)c24)C3)C[C@@H]1CC#N [adagrasib] ... True
6) NC(=O)Nc1cc(-c2cccc(F)c2)sc1C(=O)N[C@H]1CCCNC1 [AZD-7762] + C=C(F)C(=O)N1CCN(c2nc(OC[C@@H]3CCCN3C)nc3c2CCN(c2cccc4cccc(Cl)c24)C3)C[C@@H]1CC#N [adagrasib] ... False
7) O=c1cc(N2CCOCC2)oc2c(-c3cccc4c3sc3ccccc34)cccc12 [NU-7441] + C=C(F)C(=O)N1CCN(c2nc(OC[C@@H]3CCCN3C)nc3c2CCN(c2cccc4cccc(Cl)c24)C3)C[C@@H]1CC#N [adagrasib] ... False
8) CCCC(CCC)C(=O)O [Valproic acid] + C=C(F)C(=O)N1CCN(c2nc(OC[C@@H]3CCCN3C)nc3c2CCN(c2cccc4cccc(Cl)c24)C3)C[C@@H]1CC#N [adagrasib] ... False
9) O=C(C1CC1)N1CC[C@@H](Cn2c(-c3ccc(-c4ccc5occc5c4)cc3)nc3cnccc32)C1 + C=C(F)C(=O)N1CCN(c2nc(OC[C@@H]3CCCN3C)nc3c2CCN(c2cccc4cccc(Cl)c24)C3)C[C@@H]1CC#N [adagrasib] ... False
